Test system: VA-ES-BJ
assay notes: standardised AUC of viability dose-response curve (72 h) (fraction (0-1)); higher = less growth inhibition (more resistant)
quantity measured: standardised AUC
Number only, no unit.

molecule	tested on	standardised AUC
C#Cc1cccc(Nc2ncnc3cc4c(cc23)OCCOCCOCCO4)c1	VA-ES-BJ	0.975

Looking up `CN(C)C/C=C/C(=O)Nc1cc2c(Nc3ccc(F)c(Cl)c3)ncnc2cc1O[C@H]1CCOC1` , I see its standardised AUC listed as 0.825

standardised AUC reported for this molecule Cc1cc2c(F)c(Oc3ncnn4cc(OC[C@@H](C)OC(=O)[C@H](C)N)c(C)c34)ccc2[nH]1 [BRIVANIB ALANINATE] : 0.994

In plain terms, `CO[C@H]1C[C@@H]2CC[C@@H](C)[C@@](O)(O2)C(=O)C(=O)N2CCCC[C@H]2C(=O)O[C@H]([C@H](C)C[C@@H]2CC[C@@H](OC(=O)C(C)(CO)CO)[C@H](OC)C2)CC(=O)[C@H](C)/C=C(\C)[C@@H](O)[C@@H](OC)C(=O)[C@H](C)C[C@H](C)/C=C/C=C/C=C/1C` has a documented standardised AUC of 0.588

Item: `CN(C)CCCOc1ccc(-c2ccc3ncc4c(c3c2)n(C2CCOCC2)c(=O)n4C)cn1` | standardised AUC: 0.753

Field standardised AUC (entry `Cn1cnc2c(F)c(Nc3ccc(Br)cc3Cl)c(C(=O)NOCCO)cc21` ) reads 0.887

// sample `COC(=O)c1ccc2c(c1)NC(=O)/C2=C(\Nc1ccc(N(C)C(=O)CN2CCN(C)CC2)cc1)c1ccccc1` , its standardised AUC was 0.982

standardised AUC measured on O=C(/C=C\n1cnc(-c2cc(C(F)(F)F)cc(C(F)(F)F)c2)n1)NNc1cnccn1 [SELINEXOR] = 0.625
